ASSAY PROCEDURE: Human HepG2 cell viability assay in 384 well format
Assay type: toxicity, cell-based
Parameters: dose 125 nL, time 70.5 hour; concentration not given beside the values
MEASUREMENT CONDITIONS: HepG2 cells, read-out: Inhibition
Reported cytotoxicity at 70.5 h values for a set of molecules
Supply the numeric figure in %, leaving out any unit text.

Below: 5 molecules and their reported cytotoxicity at 70.5 h.
MOLECULE: CCn1ncc(Cn2cc(Cl)c(N)n2)c1C
MEAS VALUE: 19.5
//
MOLECULE: O=C(NCc1ccccn1)[C@]12COC[C@H]1CN(Cc1ccccc1F)C2
MEAS VALUE: -7.42
//
MOLECULE: Cc1nc(CN2CCCC(NCCOc3ccccc3C#N)C2)no1 (configuration not stated)
MEAS VALUE: -2.51
//
MOLECULE: CCNC(=O)C(C)NC(=O)Nc1ccccc1SCC (configuration not stated)
MEAS VALUE: -16.9
//
MOLECULE: O=C(O)c1ccccc1-c1c(-c2ccccc2)ncn1C[C@H]1CCCN1
MEAS VALUE: -3.04

query: State the recorded cytotoxicity at 70.5 h for this entry: "O=C(O)c1cc(-c2cncnc2)cc(S(=O)(=O)N2CCCCCC2)c1"
result: -10.5

query: Try "COc1ccc(CN2CCN(c3ncc(Cl)cn3)CC2)cc1" next.
result: 13.2

----------
ASSAY PROCEDURE: Human HepG2 cell viability assay in 384 well format
Type: toxicity, cell-based
Parameters: dose 125 nL, time 70.5 hour; concentration not given beside the values
MEASUREMENT CONDITIONS: HepG2 cells, read-out: Inhibition
Measured cytotoxicity at 70.5 h values are reported for all entries that follow.
Note: unit % is implicit; provide only the numeric part.

COMPOUND: Cc1noc(C2CCC3(CCN(C(=O)c4cnn(C)c4)CC3)O2)n1 (stereo unspecified)
MEASURED PROPERTY: cytotoxicity at 70.5 h
ENDPOINT UNIT: %
MEAS VALUE: -10.3

Let us move to another entry and its cytotoxicity at 70.5 h.
query: Please give the measured cytotoxicity at 70.5 h for this compound: "O=C(CCNc1ccccc1)NC1CCN(C(=O)C2CCCCC2)CC1"
result: -5.78

----------
The following compounds are shown together with reported cytotoxicity at 70.5 h values.
ASSAY PROCEDURE: Human HepG2 cell viability assay in 384 well format
Format: toxicity, cell-based
Parameters: dose 125 nL, time 70.5 hour; concentration not given beside the values
MEASUREMENT CONDITIONS: HepG2 cells, read-out: Inhibition
// note: answer is a bare numeric in %

COMPOUND: O=C(NCC1CCCN(Cc2cccc3nonc23)C1)c1ccc[nH]1 (configuration not stated)
MEASURED PROPERTY: cytotoxicity at 70.5 h
MEAS VALUE: 3.08
--
COMPOUND: Cc1ccc(CC2CCCN2CC(=O)NCc2ccccn2)cc1 (configuration not stated)
MEASURED PROPERTY: cytotoxicity at 70.5 h
MEAS VALUE: 15.4
--
COMPOUND: Cn1nccc1CNC(=O)NC1CCN(c2ncccc2Cl)C1 (configuration not stated)
MEASURED PROPERTY: cytotoxicity at 70.5 h
MEAS VALUE: -0.776
--
COMPOUND: Cn1cccc1C(=O)N1C[C@@H](OCc2ccncc2)[C@@H]2OCCC[C@@H]21
MEASURED PROPERTY: cytotoxicity at 70.5 h
MEAS VALUE: -1.09
--
COMPOUND: c1ccc(OCCN2CCC(n3cncn3)CC2)cc1
MEASURED PROPERTY: cytotoxicity at 70.5 h
MEAS VALUE: 25.3
--
COMPOUND: CC(=O)Nc1nc(CS(=O)(=O)Cc2ccccc2)cs1
MEASURED PROPERTY: cytotoxicity at 70.5 h
MEAS VALUE: 20.1

Please examine the following record next.
query: Fill in: cytotoxicity at 70.5 h of "COc1cccc([C@H]2CN(C(=O)c3cc(C)on3)C[C@@H]2N)c1" is ___
result: -10.9

----------
// cytotoxicity at 70.5 h lookup, one value per entry
ASSAY PROCEDURE: Human HepG2 cell viability assay in 384 well format
Assay type: toxicity, cell-based
Parameters: dose 125 nL, time 70.5 hour; concentration not given beside the values
MEASUREMENT CONDITIONS: HepG2 cells, read-out: Inhibition
The figure you give is taken to be in %; do not add the unit.

COMPOUND: Cc1csc(CN(C)C(=O)c2cccc(CCC(C)(C)O)c2)n1
ENDPOINT UNIT: %
cytotoxicity at 70.5 h: -6.05

query: Entry COCCc1noc(CN2CCOC(Cn3cc(C)cn3)C2)n1 (centres undefined) has what cytotoxicity at 70.5 h?
result: 0.177

----------
Quick reference: cytotoxicity at 70.5 h of the listed items.
ASSAY PROCEDURE: Human HepG2 cell viability assay in 384 well format
Format: toxicity, cell-based
Parameters: dose 125 nL, time 70.5 hour; concentration not given beside the values
MEASUREMENT CONDITIONS: HepG2 cells, read-out: Inhibition
Just the number in %, nothing appended.

Some solved cases for reference:
MOLECULE: N#Cc1cccc(CN2CC3(CCCCN3c3cncnc3)CC2=O)c1 (stereo not given)
cytotoxicity at 70.5 h [%]: -0.331

MOLECULE: CCS(=O)(=O)N1CCc2ccc(NC(=O)NCc3ccccc3)cc21
cytotoxicity at 70.5 h [%]: -3.62

MOLECULE: Cn1cnc2c1CCN(Cc1csc(-c3ccccc3)n1)C2
cytotoxicity at 70.5 h [%]: 24.1

MOLECULE: CC(C)(C)c1ncc(CNc2ccn(CCc3ccncc3)n2)s1
cytotoxicity at 70.5 h [%]: -10.2

MOLECULE: Cc1cnn(CC2CCCN2c2ncnc3ccccc23)c1 (stereo not given)
cytotoxicity at 70.5 h [%]: 9.14

MOLECULE: c1cnc(N2CCCC(c3cncc(-n4ccnc4)n3)C2)nc1 (stereo not given)
cytotoxicity at 70.5 h [%]: 13.4

MOLECULE: CC(C)(C)OC(=O)Cn1cccc(S(=O)(=O)N2CCCC2)c1=O
cytotoxicity at 70.5 h [%]: -12.8

MOLECULE: CN(Cc1ccc(CCC(C)(C)O)cc1)Cc1cccnc1
cytotoxicity at 70.5 h [%]: -11.5

Now consider a different molecule.
query: Could you tell me which cytotoxicity at 70.5 h is on file for CC(NCc1cnc(C2CCC2)s1)c1cccc(-n2cccn2)c1 (stereo not given) ?
result: 16.3

----------
Collected cytotoxicity at 70.5 h values appear next to each entry.
ASSAY PROCEDURE: Human HepG2 cell viability assay in 384 well format
Assay type: toxicity, cell-based
Parameters: dose 125 nL, time 70.5 hour; concentration not given beside the values
MEASUREMENT CONDITIONS: HepG2 cells, read-out: Inhibition

Sample records with cytotoxicity at 70.5 h:
COMPOUND: COC1CCCN(Cc2nc(Cc3ccccc3F)no2)C1 (centres undefined)
cytotoxicity at 70.5 h: -5.83%
--
COMPOUND: CC(C)CN1CCN(C(=O)c2ccncc2F)Cc2cccnc21
cytotoxicity at 70.5 h: -9.62%
--
COMPOUND: COc1ccccc1C(C(=O)O)N1CCCN(C2CCCC2)CC1 (centres undefined)
cytotoxicity at 70.5 h: 16.1%

Here's the next entry for you.
query: Can you share its cytotoxicity at 70.5 h? I mean this compound: "CC(C)(C)C(=O)N1CCC(c2nc(O)cc(-c3ccccn3)n2)CC1"
result: 16%

----------
ASSAY PROCEDURE: Human HepG2 cell viability assay in 384 well format
Format: toxicity, cell-based
Set-up: dose 125 nL, time 70.5 hour; concentration not given beside the values
MEASUREMENT CONDITIONS: HepG2 cells, read-out: Inhibition
Collected cytotoxicity at 70.5 h values appear next to each entry.
Respond numerically; units are % and should not be typed.

COMPOUND: CC(C)n1[nH]c(=O)c2c1NC(=O)CC2C1CCCCC1 (centres undefined)
MEASURED PROPERTY: cytotoxicity at 70.5 h
MEAS VALUE: 4.13

COMPOUND: COc1cc(N2CCC3(CC2)C(c2ccncc2)CC(=O)N3C)ncn1 (centres undefined)
MEASURED PROPERTY: cytotoxicity at 70.5 h
MEAS VALUE: -9.06

query: Recorded cytotoxicity at 70.5 h for CN(Cc1ccccc1)CC(O)Cn1cnc2sccc2c1=O (centres undefined) , please?
result: -8.79

query: What do you get for "CN(C)CCN1C[C@@H]2CN(S(=O)(=O)c3ccccc3)C[C@@H]2C1=O" ?
result: -0.863

query: Can you check "Cc1ccc(C)c(OCCC(=O)N2CCCN(CC(N)=O)CC2)c1" next?
result: -7.33

----------
Consider the following molecules and their measured cytotoxicity at 70.5 h readings.
ASSAY PROCEDURE: Human HepG2 cell viability assay in 384 well format
Type: toxicity, cell-based
Parameters: dose 125 nL, time 70.5 hour; concentration not given beside the values
MEASUREMENT CONDITIONS: HepG2 cells, read-out: Inhibition
Quick reminder: number only, in %, skip the unit.

Example cases with answers are listed next.
MOLECULE: Cc1ccc(C(=O)O)cc1NC(=O)C1CC=CC1
cytotoxicity at 70.5 h / %: 22.9

MOLECULE: Cc1noc(C)c1CN1CCOCC12CCN(c1cnccn1)CC2
cytotoxicity at 70.5 h / %: -6.5

MOLECULE: Cc1ccccc1C(C(=O)N(Cc1cnn(C)c1)CC(C)C)N(C)C (stereo not given)
cytotoxicity at 70.5 h / %: -9.52

MOLECULE: O=C(Nc1ccc(-n2cncn2)nc1)N(CC1CCOC1)C1CC1 (stereo not given)
cytotoxicity at 70.5 h / %: -1.97

query: Could you tell me which cytotoxicity at 70.5 h is on file for "O=C(NCCNc1ncccn1)NCc1cccc(OC(F)F)c1" ?
result: 18.9
